Can you tell me flash point for the items I'm about to list?
Answers are plain numbers, in °C.

Please review the entries below; each comes with its answer.
CCCCC=O    8
CSCc1ccccc1 [benzyl methyl sulfide]    73
CC(C)C(C)(C)C    -6
C=C(C)C=O [isobutenal]    -0
C=CCCCCCCCCCCC    80

Now, please, on to the next compound.
Prompt: Could you tell me which flash point is on file for C=CCCO ?
Response: 33

###

Label 1 (yes) when flash point is at or above 60 °C; anything below gets 0 (no).

Use the examples below as a reference point.
c1ccc2ncccc2c1    1 (yes)
C1=CCCC=CCC1    0 (no)
O=C1CCCCC1    0 (no)
CCCC#CCCCCCC    1 (yes)
CCC/C=C\CCC [cis-4-octene]    0 (no)

Prompt: Form field: flash point at least 60 °C? Entry: CCC#CCCC
Response: 0 (no)

###

metric: flash point (°C)
Answers are plain numbers, in °C.

Please review the entries below; each comes with its answer.
CCOCC.FB(F)F    64.00
CN(C)P(=O)(N(C)C)N(C)C [N-[bis(dimethylamino)phosphoryl]-N-methylmethanamine]    106.00
Nc1ccc(F)cc1    74.00

Now, please, on to the next compound.
Prompt: Could you tell me which flash point is on file for CCOP(=S)(OCC)Oc1nc(Cl)c(Cl)cc1Cl ?
Response: 28.00

###

metric: flash point
Please don't drop the unit; write it after the number.

NC1CC1    -25 °C
O=C1CCCCC1=O    84 °C
CC=CCCCCC    14 °C

Provide reported flash point for each item, in the same order as listed.
1. CC#CCCC
2. CCOC(=O)CCl [ethyl chloroacetate]

Response:
1: -11 °C; 2: 53 °C

Prompt: Could you tell me which flash point is on file for N#CC1CC1 ?
Response: 32 °C

###

Counter-ions that a name gives are not always drawn.
Can you tell me flash point for the items I'm about to list?
Give bare numbers, in °C.

Please review the entries below; each comes with its answer.
c1ccc2ncccc2c1 [quinoline]    105
COC(C)(C)C [tert-butyl methyl ether]    -28
CC(C)(C)OC=O [t-butyl formate]    -9
CC(C)CO [2-methyl-1-propanol]    27
CCC(C)CS (stereo not drawn) [2-methyl-1-butanethiol]    19
C=CCCBr [4-bromo-1-butene]    9
CCCCCC(O)CC (stereo not drawn) [3-octanol]    65
Cc1ccc(O)cc1 [p-cresol]    86

Provide reported flash point for each item, in the same order as listed.
1. CC(C)COC(=O)C(C)C [isobutyl isobutyrate]
2. CCN(C#N)CC [diethylcyanamide]
3. CCCCOC(=O)CCCCCCCCC(=O)OCCCC [dibutyl sebacate]

Response:
[40, 69, 167]

###

Can you tell me flash point for the items I'm about to list?
One number for each entry, in °C.

Please review the entries below; each comes with its answer.
CC(C)C(=O)OC(=O)C(C)C [isobutanoicanhydride]    67
CC(C)CCCC(C)C    26
CCC(C)C(C)C(C)(C)C (stereo unspecified)    31
CCCCCCCCCC(C)=O    89
CC(C)C1CCC(=O)CC1    65

Provide reported flash point for each item, in the same order as listed.
1. NCc1ccccc1
2. C=CC(=O)OCC(CC)CCCC (stereo unspecified) [2-ethylhexylacrylate]
3. CC(C)COCCO
4. COCCOC

Response:
1: 65; 2: 86; 3: 51; 4: -2

Provide reported flash point for each item, in the same order as listed.
1. Cc1ccc(C)c(C)c1
2. Clc1cccc(Cl)c1

Response:
1: 46; 2: 63

###

Can you tell me flash point for the items I'm about to list?
Please don't drop the unit; write it after the number.

Please review the entries below; each comes with its answer.
Cc1ccc(O)c(C)c1    94 °C
c1ccc2c(c1)CCCC2 [1,2,3,4-tetrahydronaphthalene]    77 °C
CCCCCCCBr    60 °C
CCCCCCCCCCCCC    102 °C
CCCS    -21 °C

Provide reported flash point for each item, in the same order as listed.
1. C=C(C)CCl
2. CCOC(=O)c1ccccc1C(=O)OCC [diethyl phthalate]

Response:
1. -12 °C
2. 160 °C

###

Okay, here is how we bin by flash point: zone 1: < 60 °C; zone 2: ≥ 60 °C and < 100 °C; zone 3: ≥ 100 °C

Prompt: Please classify: CCCCCCCCCc1ccc(O)cc1 [4-nonylphenol]
Response: zone 3

Prompt: Please classify: CC(C)C [2-methylpropane]
Response: zone 1

Prompt: Please classify: Nc1ccc([N+](=O)[O-])cc1 [4-nitroaniline]
Response: zone 3

Prompt: Please classify: Cc1ccccc1[N+](=O)[O-] [1-methyl-2-nitrobenzene]
Response: zone 3

###

metric: flash point (°C)
One number for each entry, in °C.

Please review the entries below; each comes with its answer.
CC(=O)[O][Hg][c]1ccccc1 [acetyloxy(phenyl)mercury]    60.00
CC(C)(c1ccc(OC[C@@H]2CO2)cc1)c1ccc(OC[C@@H]2CO2)cc1    79.00

Provide reported flash point for each item, in the same order as listed.
1. C1CO1 [oxirane]
2. CC(C)(C)OOC(C)(C)CCC(C)(C)OOC(C)(C)C [2,5-bis(tert-butylperoxy)-2,5-dimethylhexane]
3. CC(=O)CCC(C)=O [hexane-2,5-dione]
4. CC(=O)Cl [acetyl chloride]
5. FC(F)(F)c1ccc(Cl)cc1 [1-chloro-4-(trifluoromethyl)benzene]

Response:
1: -18.00; 2: 85.00; 3: 79.00; 4: 4.00; 5: 47.00

Provide reported flash point for each item, in the same order as listed.
1. CCCNCC(O)COc1ccccc1C(=O)CCc1ccccc1 (stereo unspecified)
2. N=C(N)N(c1ccccc1)c1ccccc1 [1,1-diphenylguanidine]
3. Cc1ccc(N=C=O)cc1N=C=O [2,4-diisocyanato-1-methylbenzene]
4. CC(C)CCCCCOC(=O)c1ccccc1C(=O)OCCCCCC(C)C [bis(6-methylheptyl) benzene-1,2-dicarboxylate]

Response:
[199.00, 170.00, 132.00, 232.00]

###

Can you tell me flash point for the items I'm about to list?
One number for each entry, in °C.

Please review the entries below; each comes with its answer.
COC(=O)C1CCCCC1 [methylcyclohexanecarboxylate]    60
C=CCOC(=O)CCC [allylbutanoate]    42
C/C=C/CCC [trans-2-hexene]    -25
Cc1cccc(N)c1C [2,3-dimethylaniline]    96
CC(C)[N+](=O)[O-] [2-nitropropane]    28

Provide reported flash point for each item, in the same order as listed.
1. CC(N)CN (configuration not stated) [1,2-propanediamine]
2. CCCCCC(=O)CC [3-octanone]

Response:
1: 33; 2: 51

Provide reported flash point for each item, in the same order as listed.
1. O=C1C=CCCC1 [2-cyclohexen-1-one]
2. CCCCCC1CCCCC1 [pentylcyclohexane]
3. CCCCCCCCOC(C)=O [octylacetate]
4. CCCC(C)CC(C)C (configuration not stated) [2,4-dimethylheptane]

Response:
1: 56; 2: 63; 3: 82; 4: 15

Prompt: Could you tell me which flash point is on file for Nc1ccccc1 [aniline] ?
Response: 70

###

Threshold 50 °C. flash point below it: TRUE. flash point at it or above: FALSE.

CCC(CC)C(=O)O [2-ethylbutyric acid]    FALSE
C=CC(=O)OCCCC [2-propenoic acid, butyl ester]    TRUE
Cc1ccc(C)c(C)c1 [1,2,4-trimethylbenzene]    TRUE
C=C(C)C=O [2-methyl-2-propenal]    TRUE
OCCS [2-mercaptoethanol]    FALSE

Prompt: State whether 50 °C exceeds flash point recorded for CCOS(=O)OCC [diethyl sulfite] .
Response: FALSE

Prompt: State whether 50 °C exceeds flash point recorded for ClCC(Cl)Cl [1,1,2-trichloroethane] .
Response: TRUE

###

Can you tell me flash point for the items I'm about to list?
Give bare numbers, in °C.

CCCCC(CC)COP(=O)(Oc1ccccc1)Oc1ccccc1 (stereo not drawn) [2-ethylhexyl diphenyl phosphate]    224.00

Provide reported flash point for each item, in the same order as listed.
1. COC(C)COC(C)CO (stereo not drawn)
2. CC(C)CC(=O)O
3. CCCCc1ccccc1
4. CCCCOC(=O)CCCCC(=O)OCCCC [dibutyl hexanedioate]
5. CN1CSC(=S)N(C)C1

Response:
1. 74.00
2. 70.00
3. 71.00
4. 113.00
5. 93.00

Provide reported flash point for each item, in the same order as listed.
1. CCCl
2. OCc1ccccc1
3. c1ccc(P(c2ccccc2)c2ccccc2)cc1
4. CCCCC=O
5. CC/C=C/C#N [(E)-pent-2-enenitrile]
6. C#CCOS(=O)OC1CCCCC1Oc1ccc(C(C)(C)C)cc1 (stereo not drawn) [[2-(4-tert-butylphenoxy)cyclohexyl] prop-2-ynyl sulfite]
7. C=CC(=O)OCCN(C)C [2-(dimethylamino)ethyl prop-2-enoate]
8. C=CCN

Response:
-50.00
101.00
180.00
12.00
23.00
28.00
29.00
-29.00
